# System: HCT-15
# measurementDescription: Growth inhibition of human HCT15 cells after 48 hrs by sulforhodamine B assay
# Assay type: functional
# testConditions: HCT-15, 48 h
Would you mind telling me the reported TGI of each entry?
Numbers only, in µM.

1. COc1ccc(/C=N/c2nc3[nH]nc(C)n3c(=O)c2S(=O)(=O)NN2C(=O)C(CN3CCOCC3)SC2c2cccs2)cc1 (centres undefined); 71.7

Record summary for COc1ccc(/C=N/c2nc3[nH]nc(C)n3c(=O)c2S(=O)(=O)NN2C(=O)C(CN3CCN(C)CC3)SC2c2ccc(OC)cc2)cc1 (centres undefined) : reported TGI = 70.8
